- Subject Of Test: wild type human growth hormone (human, UniProt P01241 27-217)
- Sequence (P01241 27-217): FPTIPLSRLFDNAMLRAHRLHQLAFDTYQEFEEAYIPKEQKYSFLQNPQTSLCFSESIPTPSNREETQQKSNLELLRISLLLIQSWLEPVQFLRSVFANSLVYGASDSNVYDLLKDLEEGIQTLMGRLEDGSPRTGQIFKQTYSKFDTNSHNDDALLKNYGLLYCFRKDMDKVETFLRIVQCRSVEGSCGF
- Test Summary: cell-based or functional assay
This listing pairs binders with measured Selectivity (Q141/Q40), CE.
Answer as a number with no unit attached.

Q) Which Selectivity (Q141/Q40), CE value is on record for GlyPro-mTGase_Y75A from S. ladakanum (enzyme) GPDSDERVTPPAEPLDRMPDPYRPSYGRAETIVNNYIRKWQQVYSHRDGRKQQMTEEQREWLSYGCVGVTWVNSGQAPTNRLAFAFFDEDKYKNELKNGRPRSGETRAEFEGRVAKDSFDEAKGFQRARDVASVMNKALENAHDEGAYLDNLKKELANGNDALRNEDARSPFYSALRNTPSFKDRNGGNHDPSKMKAVIYSKHFWSGQDRSGSSDKRKYGDPEAFRPDRGTGLVDMSRDRNIPRSPTSPGESFVNFDYGWFGAQTEADADKTVWTHGNHYHAPNGSLGAMHVYESKFRNWSDGYSDFDRGAYVVTFVPKSWNTAPDKVKQGWP ?
A) 17.3

Q) Queued: GlyPro-mTGase_Y75F from S. ladakanum (enzyme) GPDSDERVTPPAEPLDRMPDPYRPSYGRAETIVNNYIRKWQQVYSHRDGRKQQMTEEQREWLSYGCVGVTWVNSGQFPTNRLAFAFFDEDKYKNELKNGRPRSGETRAEFEGRVAKDSFDEAKGFQRARDVASVMNKALENAHDEGAYLDNLKKELANGNDALRNEDARSPFYSALRNTPSFKDRNGGNHDPSKMKAVIYSKHFWSGQDRSGSSDKRKYGDPEAFRPDRGTGLVDMSRDRNIPRSPTSPGESFVNFDYGWFGAQTEADADKTVWTHGNHYHAPNGSLGAMHVYESKFRNWSDGYSDFDRGAYVVTFVPKSWNTAPDKVKQGWP
A) 29.1

Q) Input GlyPro-mTGase_Y62H_Y75N from S. ladakanum (enzyme) GPDSDERVTPPAEPLDRMPDPYRPSYGRAETIVNNYIRKWQQVYSHRDGRKQQMTEEQREWLSHGCVGVTWVNSGQNPTNRLAFAFFDEDKYKNELKNGRPRSGETRAEFEGRVAKDSFDEAKGFQRARDVASVMNKALENAHDEGAYLDNLKKELANGNDALRNEDARSPFYSALRNTPSFKDRNGGNHDPSKMKAVIYSKHFWSGQDRSGSSDKRKYGDPEAFRPDRGTGLVDMSRDRNIPRSPTSPGESFVNFDYGWFGAQTEADADKTVWTHGNHYHAPNGSLGAMHVYESKFRNWSDGYSDFDRGAYVVTFVPKSWNTAPDKVKQGWP
A) 26.3

Q) Follow-up item: AlaPro-mTGase from S. mobaraensis (enzyme) APDSDDRVTPPAEPLDRMPDPYRPSYGRAETVVNNYIRKWQQVYSHRDGRKQQMTEEQREWLSYGCVGVTWVNSGQYPTNRLAFASFDEDRFKNELKNGRPRSGETRAEFEGRVAKESFDEEKGFQRAREVASVMNRALENAHDESAYLDNLKKELANGNDALRNEDARSPFYSALRNTPSFKERNGGNHDPSRMKAVIYSKHFWSGQDRSSSADKRKYGDPDAFRPAPGTGLVDMSRDRNIPRSPTSPGEGFVNFDYGWFGAQTEADADKTVWTHGNHYHAPNGSLGAMHVYESKFRNWSEGYSDFDRGAYVITFIPKSWNTAPDKVKQGWP
A) 5.7

Q) Try the binder GlyPro-mTGase_Y75N from S. ladakanum (enzyme) GPDSDERVTPPAEPLDRMPDPYRPSYGRAETIVNNYIRKWQQVYSHRDGRKQQMTEEQREWLSYGCVGVTWVNSGQNPTNRLAFAFFDEDKYKNELKNGRPRSGETRAEFEGRVAKDSFDEAKGFQRARDVASVMNKALENAHDEGAYLDNLKKELANGNDALRNEDARSPFYSALRNTPSFKDRNGGNHDPSKMKAVIYSKHFWSGQDRSGSSDKRKYGDPEAFRPDRGTGLVDMSRDRNIPRSPTSPGESFVNFDYGWFGAQTEADADKTVWTHGNHYHAPNGSLGAMHVYESKFRNWSDGYSDFDRGAYVVTFVPKSWNTAPDKVKQGWP
A) 19.3
